- TARGET_UNDER_TEST: CD3 epsilon/delta heterodimer (Homo sapiens, UniProt P07766;P04234 P07766:23-126,P04234:22-105)
- Sequence (P07766 23-126, stated change not applied, chain 1 of 2): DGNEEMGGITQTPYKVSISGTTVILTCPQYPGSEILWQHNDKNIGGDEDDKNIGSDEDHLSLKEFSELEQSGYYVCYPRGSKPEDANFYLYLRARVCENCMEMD
- Sequence (P04234 22-105, stated change not applied, chain 2 of 2): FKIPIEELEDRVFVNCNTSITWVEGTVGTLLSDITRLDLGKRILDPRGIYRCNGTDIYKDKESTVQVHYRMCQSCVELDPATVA
- ASSAY_DETAILS: SPR; steady state; kinetic 23.3 nM (Table 6)
- TEST_CONTEXT: tags: C-terminal human IgG1 Fc fusion, AcroBiosystems; chain copies: heterodimer 1:1 (inferred); label: 5'-biotin-TEG
pKd: −log10 of the molar value.
MEASUREMENT_LABEL: pKd

BINDER	MEASUREMENT_LABEL	VALUE_MEASURED
GGTCGGGTGCTACTGAGCGATTGGCTTTCCGGACTGGGGA (ssDNA) [CELTIC_21s]	pKd	6.39
